Reference source for all entries: paper PMC6316570

# Test system: T1, His-tagged CX3CR1 (human, UniProt P49238 1-355)
# T1 construct: CX3CR1 (fractalkine receptor), human cDNA; Two templates are described; The pET28a plasmid has an N-terminal 6xHis tag, the linker DYDIPTT and a TEV site; The linear PCR product takes its His-tag from the reverse primer, which would be C-terminal; In the nanodisc assay the receptor sat in a lipid nanodisc (MSP scaffold, POPC/POPS/cholesterol); In the micelle assay it was in detergent; also called …
# T1 sequence (looked up): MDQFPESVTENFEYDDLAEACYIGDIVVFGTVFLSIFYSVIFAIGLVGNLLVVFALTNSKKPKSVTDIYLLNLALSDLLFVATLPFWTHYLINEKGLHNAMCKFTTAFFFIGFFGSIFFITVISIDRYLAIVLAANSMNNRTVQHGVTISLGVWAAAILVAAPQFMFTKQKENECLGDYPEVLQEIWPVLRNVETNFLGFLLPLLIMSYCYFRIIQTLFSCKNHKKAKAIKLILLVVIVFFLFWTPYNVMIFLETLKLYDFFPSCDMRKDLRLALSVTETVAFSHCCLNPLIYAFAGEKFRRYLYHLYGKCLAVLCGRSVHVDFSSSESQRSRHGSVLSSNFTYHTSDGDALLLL
# Assay explanation: SPR; Biacore T200; unpurified PURE-synthesized Strep-tag II CX3CL1 captured (~1000 RU) on StrepMAB-Immo antibody on CM5 chip; purified His-tagged CX3CR1 synthesized with micelles, in detergent, injected; HBS-P, 25 °C, 30 µL/min; single cycle kinetics; 1:1 interaction model
# Test context: one partner purified
Measured attribute: Kd (nM)

* strep-II-tagged ligand CX3CL1 (ligand, UniProt P78423 25-100, looked up, fractalkine (CX3CL1), amplified from pUREstrept2 plasmid; printed size 8.5 kDa; also called fractalkine; CX3CL1-tagged with Strep-tag II; source: PURE system (cell-free), not purified, immobilized directly; not shown: Strep-tag II, N-terminal, kept) QHHGVTKCNITCSKMTSKIPVALLIHYQQNQASCGKRAIILETRQHRLFCADPKEQWVKDAMQHLDRQAAALTRNG | 39.4
